Tested on: HeLa
Assay: CCK-8 anti-proliferation assay, HeLa
Format: cell-based, human
Conditions: Homo sapiens, 20 μM, mean ± SD, read-out: Inhibition Rate (%) at 20 μM HeLa
Description: Human cervical cancer HeLa, human prostate cancer PC3, human colonic carcinoma HCT116, human lung carcinoma A549, human breast cancer MDA-MB-231, mouse melanoma B16, human ovarian cancer SKOV3, human hepatoma Hep3B, and human liver L02 cells were purchased from the Cell Bank of Shanghai Institute of Biochemistry and Cell Biology, Chinese Academy of Sciences (Shanghai, China). […]
Provide the recorded inhibition at 20 µM for the entries that follow.

For the molecule "O=C(NCCC(=O)N1CCOCC1)c1ccc(C2=CC(=O)c3ccccc3C2=O)o1" , give its reported inhibition at 20 µM. 5.91%

Consider the molecule "COc1cc(-c2ccc(C(=O)NCCCn3ccnc3)o2)c(OC)c2ccccc12" . State its measured inhibition at 20 µM. 18.3%

Give the reported value of inhibition at 20 µM for this record: "COc1cc(-c2ccc(/C=C(\C#N)C(=O)NC3CC(C)(C)NC(C)(C)C3)o2)c(OC)c2ccccc12" 59.1%

For the molecule "COc1cc(-c2ccc(/C=C(\C#N)C(=O)Nc3ccccc3)o2)c(OC)c2ccccc12" , give its reported inhibition at 20 µM. 9.49%

Identify measured inhibition at 20 µM associated with "N#C/C(=C\c1ccc(C2=CC(=O)c3ccccc3C2=O)o1)C(=O)NCCc1cccs1" 5.61%
